Just for reference, paper PMC12669040 is where these values come from.

Reported values of remaining [B] for individual entries
# Assay Summary: Colorimetric alkylation rate constant assay with TNB^2− as non-specific thiol
# Format: physicochemical
# Stated Conditions: Replicate 1, 723 sec, [B]0 = 250; in µM

Compound	remaining [B]
O=C(CCl)Nc1ccccc1	243.908
C=CS(=O)(=O)Nc1cc2cc(C(=O)CCC(=O)O)sc2cc1OC [Compound E1]	246.895
O=C(CCl)Nc1ccccc1C(=O)O	246.309
O=C(CCl)Nc1ccc(F)cc1	244.563
O=C(CCl)N1CCOCC1	243.209
COc1cc2sc(C(=O)CCC(=O)O)cc2cc1NC(=O)CCl [Compound E2]	243.335

* * *

Reported values of remaining [B] for individual entries
# Assay Summary: Colorimetric alkylation rate constant assay with TNB^2− as non-specific thiol
# Format: physicochemical
# Stated Conditions: Replicate 1, 1084 sec, [B]0 = 250; in µM

Compound	remaining [B]
O=C(CCl)Nc1ccc(F)cc1	243.946
COc1cc2sc(C(=O)CCC(=O)O)cc2cc1NC(=O)CCl [Compound E2]	242.818
O=C(CCl)Nc1ccccc1	243.228
O=C(CCl)Nc1ccccc1C(=O)O	246.107
C=CS(=O)(=O)Nc1cc2cc(C(=O)CCC(=O)O)sc2cc1OC [Compound E1]	246.063
O=C(CCl)N1CCOCC1	241.798

* * *

Reported values of fold induction at 0.37037 µM for individual entries
# Test system: THP-1 Lucia ISG cells (interferon pathway)
# Assay Summary: Potency test of purified dimers on THP-1 Lucia ISG reporter cells
# Type: cell-based, human
# Stated Conditions: Homo sapiens, THP1-Lucia ISG, 24 h, Concentration 370.37 nM; three replicates; read-out: Processed reporter response per replicate (reading relative to DMSO)
# Description: Cells were pelleted (150g, 10 min) and resuspended in the growth medium (40% conditioned) at a density of 1 × 10^6 cells ml^−1. The cell suspension was dispensed (50 µl each well) into a lidded white 96-well plate (BrandTech 781665). […] Raw signals were divided by the averaged signal of the DMSO-treated control wells and reported in relative luminescence unit (RLU). […]

Molecule	fold induction at 0.37037 µM
COc1cc2sc(C(=O)CCC(=O)O)cc2cc1CCCSc1cc2cc(C(=O)CCC(=O)O)sc2cc1OC [Compound D4]	1.01
COc1cc2sc(C(=O)CCC(=O)O)cc2cc1Sc1cc2cc(C(=O)CCC(=O)O)sc2cc1OC [Compound D1]	148
COc1cc2sc(C(=O)CCC(=O)O)cc2cc1SCSc1cc2cc(C(=O)CCC(=O)O)sc2cc1OC [Compound D5]	166
COc1cc2sc(C(=O)CCC(=O)O)cc2cc1CSCc1cc2cc(C(=O)CCC(=O)O)sc2cc1OC [Compound D7]	174
COc1cc2sc(C(=O)CCC(=O)O)cc2cc1CSc1cc2cc(C(=O)CCC(=O)O)sc2cc1OC [Compound D2]	153

* * *

Reported values of fold induction at 3.33333 µM for individual entries
# System: THP-1 Lucia ISG cells (interferon pathway)
# Assay Summary: Potency test of purified dimers on THP-1 Lucia ISG reporter cells
# Assay type: cell-based, human
# Stated Conditions: Homo sapiens, THP1-Lucia ISG, 24 h, Concentration 3333.33 nM; three replicates; read-out: Processed reporter response per replicate (reading relative to DMSO)

Compound	fold induction at 3.33333 µM
COc1cc2sc(C(=O)CCC(=O)O)cc2cc1SCSc1cc2cc(C(=O)CCC(=O)O)sc2cc1OC	232
COc1cc2sc(C(=O)CCC(=O)O)cc2cc1CSCc1cc2cc(C(=O)CCC(=O)O)sc2cc1OC	230
COc1cc2sc(C(=O)CCC(=O)O)cc2cc1Sc1cc2cc(C(=O)CCC(=O)O)sc2cc1OC [Compound D1]	195
COc1cc2sc(C(=O)CCC(=O)O)cc2cc1CSc1cc2cc(C(=O)CCC(=O)O)sc2cc1OC [Compound D2]	191
